# Experimental System: Fatty acid-binding protein, adipocyte (Homo sapiens)
# Sequence (P15090 whole entry): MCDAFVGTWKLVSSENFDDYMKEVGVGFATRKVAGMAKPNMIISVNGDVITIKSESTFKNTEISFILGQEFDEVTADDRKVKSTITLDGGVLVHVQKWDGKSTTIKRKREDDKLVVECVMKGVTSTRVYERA
# Protocol Details: Inhibition of human A-FABP by fluorescence polarization assay
Reported Endpoint: IC50

Examples from the recorded data:
# Item Smiles, Measured
rows = [
    ("O=C(O)c1cccc2c3c(n(Cc4ccccc4C(F)(F)F)c12)CCCC3", "< 400 nM"),
    ("O=C(O)c1cccc2c3c(n(Cc4ccccc4F)c12)CCCC3", "< 400 nM"),
    ("NC(=O)c1ccccc1Cn1c2c(c3cccc(C(=O)O)c31)CCCCC2", "< 400 nM"),
    ("O=C1CCCc2c1c1cccc(C(=O)O)c1n2Cc1ccccc1", "> 25000 nM"),
]

Attention now turns to another entry.
Any idea what its IC50 is? The compound is O=C(O)c1ccc2c(c1)c1c(n2Cc2ccccc2)CCCC1 > 25000 nM
